Please respond with reported inhibition at 100 µg/mL for every item in the list.
Tested on: HEPG2 (human liver carcinoma)
Assay: one spot 100 µg/ml cytotoxicity, HEPG2
Format: cell-based
Details: Homo sapiens, HepG2, percent inhibition, read-out: one spot concentration inhibition, HEPG2
Answers are plain numbers, in %.

{"Compound": "CC(=O)C1C(c2cccc([N+](=O)[O-])c2)c2c(C)[nH]c(=S)c(C#N)c2CC1(C)O (stereo not drawn) [Compound 2a]", "Observable": "inhibition at 100 µg/mL", "Experimental value": 61.3}
{"Compound": "CC(=O)C1C(c2ccc([N+](=O)[O-])cc2)c2c(C)nc(SCC(=O)Nc3cccc4ccccc34)c(C#N)c2CC1(C)O (stereo not drawn) [Compound 8b]", "Observable": "inhibition at 100 µg/mL", "Experimental value": 66.6}
{"Compound": "COc1cccc2c1C(=O)c1c(O)c3c(c(O)c1C2=O)C[C@@](O)(C(=O)CO)C[C@@H]3O[C@H]1C[C@H](N)[C@H](O)[C@H](C)O1 [Doxorubicin, reference compound]", "Observable": "inhibition at 100 µg/mL", "Experimental value": 58.9}
{"Compound": "CSc1nc(C)c2c(c1C#N)CC(C)(O)C(C(C)=O)C2c1cccc([N+](=O)[O-])c1 (stereo not drawn) [Compound 3]", "Observable": "inhibition at 100 µg/mL", "Experimental value": 67.7}

Each compound below has a reported value. Please supply its inhibition at 100 µg/mL.
1. CC(=O)C1C(c2ccc([N+](=O)[O-])cc2)c2c(C)nc3sc(C(=O)Nc4cccc5ccccc45)c(N)c3c2CC1(C)O (stereo not drawn) [Compound 9b]
2. CC(=O)C1C(c2cccc([N+](=O)[O-])c2)c2c(C)nc(SCC(=O)Nc3cccc4ccccc34)c(C#N)c2CC1(C)O (stereo not drawn) [Compound 8a]

Output:
1: 70; 2: 60

----------
Tested on: HSF
Assay: IC50 against normal cell line HSF
Format: cell-based, human
Settings: Homo sapiens; normal skin cell line HSF; read-out: IC50 FOR HSF ± S.D.
What IC50 was measured for each of the following?
Numbers only, in µg/mL.

{"Compound": "CSc1nc(C)c2c(c1C#N)CC(C)(O)C(C(C)=O)C2c1cccc([N+](=O)[O-])c1 (stereo not drawn)", "Experimental value": 96}

Please state, for each entry, its recorded IC50.
1. CC(=O)C1C(c2ccc([N+](=O)[O-])cc2)c2c(C)nc3sc(C(=O)Nc4cccc5ccccc45)c(N)c3c2CC1(C)O (stereo not drawn)
2. COc1cccc2c1C(=O)c1c(O)c3c(c(O)c1C2=O)C[C@@](O)(C(=O)CO)C[C@@H]3O[C@H]1C[C@H](N)[C@H](O)[C@H](C)O1 [Doxorubicin, reference compound]

Output:
[86, 83]

----------
Tested on: HEPG2 cell line
Experiment: MTT in vitro cytotoxicity, HEPG2
Type: cell-based, human
Settings: Homo sapiens; MTT, HEPG2; read-out: IC50 for HEPG2 ± S.D
Please go through the items and note down their IC50.

Field: IC50. Fill in for each record below.
1. CCOC(=O)CSc1nc(C)c2c(c1C#N)CC(C)(O)C(C(C)=O)C2c1cccc([N+](=O)[O-])c1 (stereo not shown) [Compound 4]
2. CC(=O)C1C(c2cccc([N+](=O)[O-])c2)c2c(C)nc3sc(C(=O)Nc4nc5ccccc5s4)c(N)c3c2CC1(C)O (stereo not shown) [Compound 10]

Output:
1: 80 µg/mL; 2: > 100 µg/mL

I'm hoping you can list IC50 for every compound here, please.
1. CC(=O)C1C(c2cccc([N+](=O)[O-])c2)c2c(C)nc(SCC(=O)Nc3cccc4ccccc34)c(C#N)c2CC1(C)O (stereo not shown) [Compound 8a]
2. CC(=O)C1C(c2cccc([N+](=O)[O-])c2)c2c(C)[nH]c(=S)c(C#N)c2CC1(C)O (stereo not shown) [Compound 2a]

Output:
1. 88 µg/mL
2. 82 µg/mL
